# System: hAT1R (Homo sapiens, UniProt P30556)
# Sequence (P30556 whole entry): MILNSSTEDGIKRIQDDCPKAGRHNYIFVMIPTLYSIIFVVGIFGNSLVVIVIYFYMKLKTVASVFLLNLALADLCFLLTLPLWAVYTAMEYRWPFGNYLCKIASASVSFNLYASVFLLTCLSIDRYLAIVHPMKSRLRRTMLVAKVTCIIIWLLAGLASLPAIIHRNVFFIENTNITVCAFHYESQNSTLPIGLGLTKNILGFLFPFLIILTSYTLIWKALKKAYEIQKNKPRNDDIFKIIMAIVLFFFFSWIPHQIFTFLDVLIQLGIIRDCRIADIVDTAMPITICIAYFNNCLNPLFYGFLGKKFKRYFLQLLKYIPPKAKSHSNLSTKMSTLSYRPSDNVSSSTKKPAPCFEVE
# Assay comment: cell-based
# Run conditions: agonist mode; read-out: BRET P63 EC50
pEC50: −log10 of the molar value.
Form field: pEC50 (one value per entry).

Look over these answered cases.
INSERT INTO assay_data (molecule, measured_result) VALUES
  ('CCCCc1nc(Cl)c(C(=O)O)n1Cc1ccc(-c2cc(-c3ccccc3)ccc2-c2nn[nH]n2)cc1', '< 5.00'),
  ('CCCCc1nc(Cl)c(C(=O)O)n1Cc1ccc(-c2cc(C3CCCCC3)ccc2-c2nn[nH]n2)cc1', '< 4.00'),
  ('CCCCC1=NC2(CCOC2)C(=O)N1Cc1ccc(-c2cc(-c3cccc(C)c3)ccc2-c2nnn[nH]2)cc1 (single isomer, unassigned) [Example 152]', '< 4.00');

Here's the next entry for you.
Ask: Quick one: pEC50 for CCCCC1=NC2(CCOC2)C(=O)N1Cc1ccc(-c2cc(-c3ccccc3)ccc2-c2nnn[nH]2)cc1 (single isomer, unassigned) [Example 147] ?
Reply: < 4.00

The measurements presented in this section are drawn from patent US12037324B2.
